The values you see were collected from ChEMBL document CHEMBL4808186.

Experiment: Cmax in Sprague-Dawley rat at 20 mg/kg, po by UHPLC-MS analysis
Assay type: ADME, organism-based
Parameters: route oral, dose 20 mg/kg
Details: in vivo
quantity: Cmax (ng/mL)

{"columns": ["line-notation", "quantity", "result"],
 "data": [
  ["CC(=O)O[C@H]1C(=O)[C@@]2(C)[C@H]([C@H](OC(=O)c3ccccc3)[C@]3(O)C[C@H](OC(=O)[C@H](O)[C@@H](NC(=O)c4ccccc4)c4ccccc4)C(C)=C1C3(C)C)[C@]1(OC(C)=O)CO[C@@H]1C[C@@H]2O", "Cmax", 233]
]}

* * *

Assay: Oral bioavailability in Sprague-Dawley rat at 20 mg/kg in presence of N-(2-(6,7-Dimethoxy-3,4-dihydroisoquinolin-2(1H)-yl)ethyl)-3-((4-(furan-2-yl)pyrimidin-2-yl)amino)-4-methylbenzamide by UHPLC-MS analysis
Format: ADME, organism-based
Conditions: in vivo
quantity: bioavailability (%)

{"columns": ["line-notation", "quantity", "unit-string", "result"],
 "data": [
  ["CC(=O)O[C@H]1C(=O)[C@@]2(C)[C@H]([C@H](OC(=O)c3ccccc3)[C@]3(O)C[C@H](OC(=O)[C@H](O)[C@@H](NC(=O)c4ccccc4)c4ccccc4)C(C)=C1C3(C)C)[C@]1(OC(C)=O)CO[C@@H]1C[C@@H]2O", "bioavailability", "%", 64.7]
]}
